Where do these numbers come from? They come from the supplement of paper PMC10567573.

B1: RAB11B (parent)
chain: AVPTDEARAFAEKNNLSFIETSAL

Variants of: B1
Protocol description: protein stability index of a GFP-peptide fusion (GPS, HEK-293T) (PSI 1-6); higher = more stable;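 also: lentivirally expressed fusions sorted by FACS into six bins by GFP to DsRed ratio, PSI derived from sequencing read proportions per bin multiplied by bin number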
Reported conditions: c terminus: a fixed tail appended
Class yes: protein stability index at least 3. Class no: protein stability index below 3.

Take a look at these entries with their results.
F18R: yes
A1V: no

Given V2D , state whether its protein stability index is at least 3.
yes

Given L24T , state whether its protein stability index is at least 3.
yes

Given A7W , state whether its protein stability index is at least 3.
no

Given L16E , state whether its protein stability index is at least 3.
yes

Given K13W , state whether its protein stability index is at least 3.
no

Given S22V , state whether its protein stability index is at least 3.
yes

Given N14G , state whether its protein stability index is at least 3.
no

Given L16S , state whether its protein stability index is at least 3.
yes

Given A11E , state whether its protein stability index is at least 3.
yes

Given L24P , state whether its protein stability index is at least 3.
yes

Given A23Q , state whether its protein stability index is at least 3.
no

Given I19K , state whether its protein stability index is at least 3.
yes
